Measured values drawn from the METLIN SMRT retention time set (Domingo-Almenara et al. 2019) for this set.

Here, each record is paired with measured RP-LC retention time data.
# test.method.notes: gradient 5% acetonitrile 3 min, to 50% in 2 min, to 85% in 15 min, held 3 min, 100 µL/min
# condition.notes: column: Zorbax Extend-C18 2.1 x 50 mm; eluents: water / acetonitrile, 0.1% formic acid
Dear colleague, please send the value followed by its unit.

INSERT INTO assay_data (compound, measurement) VALUES
  ('CCOC(=O)C1=Cc2ccc(C(F)(F)C(F)(F)F)cc2N=C(N)C1', '794 s');

Problem: What measured RP-LC retention time goes with CCS(=O)(=O)N1CCC(C(=O)NCCc2csc(-c3ccccc3)n2)CC1 ?
Solution: 765 s

Problem: Given the compound Cc1ccc(NC(=O)N2C[C@@H](F)C[C@H]2C(=O)N2CCCCC2)c(C)c1 , what is its reported RP-LC retention time?
Solution: 732 s

Problem: I have this compound here, COc1ccc(N2CCCCn3c2nc2c3c(=O)n(C)c(=O)n2C)cc1 , and I need its recorded RP-LC retention time.
Solution: 759 s

Problem: What RP-LC retention time value was documented for this compound, CCN1C(=O)c2cccnc2Sc2cc(C(=O)NCC(C)C)ccc21 ?
Solution: 748 s

Problem: Item under review: CCOc1ccc(-n2ccn3c(CC(C)CC(=O)NCC(C)C)nnc3c2=O)cc1 (stereo not given) . Reported RP-LC retention time?
Solution: 683 s

Problem: Need RP-LC retention time, item Cc1ccc(NC(=O)Cc2nnc(-c3cnccn3)o2)c(Cl)c1
Solution: 720 s

Problem: Tell me the measured RP-LC retention time of O=C1CCCc2c1cc(C(=O)N1CCOCC1)c(=O)n2-c1ccc(C(F)(F)F)cc1 , please.
Solution: 723 s
